Taken from patent US8846653B2.

- Tested on: BXPC3 cells
- Assay Text: MTT assay of BXPC3 cultures, single 50 μM dose
- Format: cell-based, human
- Set-up: unit not given here
- Condition Description: BXPC3, 50 μM, 120 hours (5 days), run 2
In plain terms, low MTT assay result, run 2, meaning strictly below 0.5, gives 1, and everything else gives -1.

* Cc1c(C)c2c(c(C)c1OC(=O)CCC(=O)O)CC[C@@](C)(CCC[C@H](C)CCC[C@H](C)CCCC(C)C)O2 [TS, tocopherol succinate] | 1
* Cc1c(O)cc2c(c1C)O[C@](C)(CCC[C@H](C)CCC[C@H](C)CCCC(C)C)CC2 | -1
* Cc1c(C)c2c(c(C)c1O)CC[C@@](C)(CCC[C@H](C)CCC[C@H](C)CCCC(C)C)O2 | -1
* CC(C)=CCC/C(C)=C/CC/C(C)=C/CC[C@]1(C)CCc2cc(O)c(C)c(C)c2O1 | 1
* O=C(O)CCC(=O)O | 1
* CC(C)=CCC/C(C)=C/CC/C(C)=C/CC/C(C)=C/CO | -1

----------
- System: SW1990 pancreatic cancer cells
- Assay Text: MTS assay of SW1990 cultures, single 50 μM dose
- Format: cell-based, human
- Condition Description: SW1990, 50 μM, 72 hours, run 2
Entries and their MTS assay result, run 2 values follow.
Measurement Name: MTS assay result, run 2

* CC(C)=CCC/C(C)=C/CC/C(C)=C/CC[C@]1(C)CCc2c(C)c(O)cc(C)c2O1 | 0.316
* CC(C)=CCC/C(C)=C/CC/C(C)=C/CC[C@]1(C)CCc2cc(O)cc(C)c2O1 | 0.615
* CC(C)=CCC/C(C)=C/CC/C(C)=C/CC[C@]1(C)CCc2cc(O)c(C)c(C)c2O1 | 0.744
* Cc1c(O)cc2c(c1C)O[C@](C)(CCC[C@H](C)CCC[C@H](C)CCCC(C)C)CC2 | 0.497
* O=C(O)CCC(=O)O | 0.547
* Cc1c(C)c2c(c(C)c1OC(=O)CCC(=O)O)CC[C@@](C)(CCC[C@H](C)CCC[C@H](C)CCCC(C)C)O2 [TS, tocopherol succinate] | 0.962
* CC(C)=CCC/C(C)=C/CC/C(C)=C/CC/C(C)=C/CO | 0.713
* Cc1c(C)c2c(c(C)c1O)CC[C@@](C)(CCC[C@H](C)CCC[C@H](C)CCCC(C)C)O2 | 0.478

----------
Entries and their MTS assay result, run 1 values follow.
- System: SW1990 pancreatic cancer cells
- Assay Text: MTS assay of SW1990 cultures, single 50 μM dose
- Type: cell-based, human
- Condition Description: SW1990, 50 μM, 72 hours, run 1
Measurement Name: MTS assay result, run 1

- Cc1c(C)c2c(c(C)c1OC(=O)CCC(=O)O)CC[C@@](C)(CCC[C@H](C)CCC[C@H](C)CCCC(C)C)O2 [TS, tocopherol succinate]: 0.998
- CC(C)=CCC/C(C)=C/CC/C(C)=C/CC/C(C)=C/CO: 0.784
- Cc1c(O)cc2c(c1C)O[C@](C)(CCC[C@H](C)CCC[C@H](C)CCCC(C)C)CC2: 0.5
- Cc1c(C)c2c(c(C)c1O)CC[C@@](C)(CCC[C@H](C)CCC[C@H](C)CCCC(C)C)O2: 0.523
- CC(C)=CCC/C(C)=C/CC/C(C)=C/CC[C@]1(C)CCc2c(C)c(O)cc(C)c2O1: 0.349
- O=C(O)CCC(=O)O: 0.596
- CC(C)=CCC/C(C)=C/CC/C(C)=C/CC[C@]1(C)CCc2cc(O)cc(C)c2O1: 0.667
- CC(C)=CCC/C(C)=C/CC/C(C)=C/CC[C@]1(C)CCc2cc(O)c(C)c(C)c2O1: 0.776
